- subject-of-test: human IL-12 receptor (IL-12Rβ1 and IL-12Rβ2) on HEK-Blue IL-12 cells (human, UniProt P42701 24-662; Q99665 24-862)
- Sequence (Q99665 24-862, chain 2 of 2, other chains not shown): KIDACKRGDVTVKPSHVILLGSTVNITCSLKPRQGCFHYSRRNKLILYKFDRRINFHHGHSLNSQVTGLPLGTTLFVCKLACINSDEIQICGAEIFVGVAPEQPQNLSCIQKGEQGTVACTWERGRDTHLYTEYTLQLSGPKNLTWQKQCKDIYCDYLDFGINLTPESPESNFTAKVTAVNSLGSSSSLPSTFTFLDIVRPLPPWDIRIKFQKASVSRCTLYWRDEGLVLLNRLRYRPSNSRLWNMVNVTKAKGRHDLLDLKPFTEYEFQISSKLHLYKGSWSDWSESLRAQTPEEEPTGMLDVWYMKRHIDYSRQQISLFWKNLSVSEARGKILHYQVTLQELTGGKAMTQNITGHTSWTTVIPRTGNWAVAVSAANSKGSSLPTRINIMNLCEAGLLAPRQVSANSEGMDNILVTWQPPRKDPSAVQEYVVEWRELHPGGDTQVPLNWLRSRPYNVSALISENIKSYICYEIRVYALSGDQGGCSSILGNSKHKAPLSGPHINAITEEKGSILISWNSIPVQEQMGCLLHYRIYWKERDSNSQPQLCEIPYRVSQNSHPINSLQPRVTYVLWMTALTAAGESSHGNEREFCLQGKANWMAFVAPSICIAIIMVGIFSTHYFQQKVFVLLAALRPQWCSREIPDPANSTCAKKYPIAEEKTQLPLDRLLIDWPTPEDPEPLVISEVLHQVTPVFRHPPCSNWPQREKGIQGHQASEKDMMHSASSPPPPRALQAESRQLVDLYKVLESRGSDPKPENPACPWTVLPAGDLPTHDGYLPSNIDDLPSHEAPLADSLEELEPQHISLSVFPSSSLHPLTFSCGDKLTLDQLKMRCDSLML
- assay-name: cell-based or functional assay

{"binder": "DGL607 (bispecific antibody, V domains shown, 86B1 x 278B2) V domain 1: QVQLVESGGGLMQAGGSLRLSCALSRGIFSAYAMGWFRQVQGKEREFVSGISRSGSTTDYVDTAKGRFTISRDNARDTVYLQMNSLKPEDTAVYYCAAVTGTFPSSTYHNANAYHHWGQGTQVTVEP V domain 2: QVQLVESGGGLVQAGGSLKLSCAASGGTFSSYAMGWFRQAPGKEREFVAVIMRSGDTTAYVDSVKGRFTVSRDNAKNTVYLQMNSLKPEDAAVYFCAAGRPVTRTYYHTYTYPHDYDYWGQGTQVTVEP", "Max Absorbance": 0.61}
{"binder": "DGL496 (bispecific antibody, V domains shown) V domain 1: EVQLVESGGGLVQAGGSLRLSCAASGLTFRNYAMAWFRQAPGKEREFVAGITWGGGLTHYVDSVKGRFTISRDNGKNTVYLQMNSLKSEDTAVYYCAGKTQGSTWYHLTPDGYDYWGQGTQVTVEP V domain 2: QVQLVESGGGLVQPGGSLRLSCAASGFTFSSKAMHWFRQAPGKGLEWVSSINSGGAITYYKDSVKGRFTVSRDNAKNILYLEMNSLKPEDTALYYCATDTDGRTRGQGTQVTVEP", "Max Absorbance": 0.27}
